Each recorded value in this set is attributed to patent US10550112B2.

target: EGFR InsGY Ba/F3 cell line (Homo sapiens, UniProt P00533, DELINS770-770GY, cells depend on it); assay: Ba/F3 cell proliferation MTS assay, EGFR InsGY; settings: EGFR InsGY (D770delinsGY) Ba/F3 cells, 72 hours
Sequence (P00533 with tags, fused parts or gaps DELINS770-770GY): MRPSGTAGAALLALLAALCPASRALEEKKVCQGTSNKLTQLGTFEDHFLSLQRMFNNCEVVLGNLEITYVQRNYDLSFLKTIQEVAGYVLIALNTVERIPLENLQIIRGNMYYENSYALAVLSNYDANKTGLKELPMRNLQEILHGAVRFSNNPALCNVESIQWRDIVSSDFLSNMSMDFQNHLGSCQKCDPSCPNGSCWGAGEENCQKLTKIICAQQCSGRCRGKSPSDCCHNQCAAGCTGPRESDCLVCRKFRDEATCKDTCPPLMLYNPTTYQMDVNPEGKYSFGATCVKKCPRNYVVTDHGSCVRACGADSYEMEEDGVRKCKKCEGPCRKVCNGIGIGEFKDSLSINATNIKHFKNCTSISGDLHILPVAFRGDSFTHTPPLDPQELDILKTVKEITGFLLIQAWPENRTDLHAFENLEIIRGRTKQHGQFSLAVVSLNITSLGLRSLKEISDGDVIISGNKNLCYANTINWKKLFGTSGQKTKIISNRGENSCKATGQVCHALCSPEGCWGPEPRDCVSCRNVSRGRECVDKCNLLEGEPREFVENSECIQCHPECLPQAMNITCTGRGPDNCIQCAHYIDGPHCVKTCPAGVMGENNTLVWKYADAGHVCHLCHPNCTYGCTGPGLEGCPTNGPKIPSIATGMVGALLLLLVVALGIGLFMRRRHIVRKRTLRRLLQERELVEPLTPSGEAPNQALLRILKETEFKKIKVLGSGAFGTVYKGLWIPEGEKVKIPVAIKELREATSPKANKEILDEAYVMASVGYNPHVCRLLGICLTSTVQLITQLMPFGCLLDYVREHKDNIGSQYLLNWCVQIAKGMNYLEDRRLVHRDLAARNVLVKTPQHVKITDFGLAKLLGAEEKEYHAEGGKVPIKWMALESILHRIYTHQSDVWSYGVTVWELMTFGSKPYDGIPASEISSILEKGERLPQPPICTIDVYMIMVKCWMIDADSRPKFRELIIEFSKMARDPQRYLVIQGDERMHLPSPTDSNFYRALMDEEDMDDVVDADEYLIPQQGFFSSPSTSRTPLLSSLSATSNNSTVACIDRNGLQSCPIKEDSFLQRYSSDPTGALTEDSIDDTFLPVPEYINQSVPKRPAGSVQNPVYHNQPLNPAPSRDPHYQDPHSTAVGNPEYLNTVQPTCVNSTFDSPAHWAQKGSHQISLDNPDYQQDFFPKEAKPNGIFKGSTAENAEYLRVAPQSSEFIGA
# key: entry, value: EC50

C=CC(=O)Nc1cccc(N(C(=O)OCc2ccc(F)cc2)c2ccnc(Nc3cnn(CCN4CCOCC4)c3)n2)c1
< 100 nM
C=CC(=O)Nc1cccc(N(C(=O)OCc2csc3ccccc23)c2ccnc(Nc3ccn(C)n3)n2)c1
> 1000 nM
C=CC(=O)Nc1cccc(N(C(=O)O[C@@H](C)c2ccc(F)cc2)c2ccnc(Nc3cnn(C)c3)n2)c1
< 100 nM
C=CC(=O)Nc1cccc(N(C(=O)OCc2ccc(F)cc2)c2ccnc(Nc3cnn(C)c3)n2)c1
< 100 nM
C=CC(=O)Nc1cccc(N(C(=O)OCc2ccc(F)cc2)c2ccnc(Nc3cnn(C)c3C)n2)c1
< 100 nM

Problem: EC50 for `C=CC(=O)Nc1cccc(N(C(=O)O[C@H](C)c2ccc(F)cc2)c2ccnc(Nc3cnn(C)c3)n2)c1` ?
Result: < 100 nM

Problem: // query: `C=CC(=O)Nc1cccc(N(C(=O)OCc2ccc(Cl)cc2)c2ccnc(Nc3ccn(C)n3)n2)c1`
Result: 100 to 500 nM

Problem: Repeat for the following compound: `Cn1cc(Nc2nccc(N(C(=O)OCc3ccc(F)cc3)c3cccc(NC(=O)/C=C/CN4CCCCCC4)c3)n2)cn1`
Result: 500 to 1000 nM

Problem: Can you check `C=CC(=O)Nc1cccc(N(C(=O)OCc2ccc(Cl)cc2)c2ccnc(Nc3cnn(C)c3)n2)c1` next?
Result: 100 to 500 nM

Problem: Here is the next compound: `C=CC(=O)Nc1cccc(N(C(=O)OCc2cc3ccccc3s2)c2ccnc(Nc3ccn(C)n3)n2)c1`
Result: 100 to 500 nM

Problem: Note, next up: `C=CC(=O)Nc1cccc(N(C(=O)OCc2cccc(F)c2)c2ccnc(Nc3ccn(C)n3)n2)c1`
Result: < 100 nM

Problem: Moving on to `C=CC(=O)Nc1cccc(N(C(=O)OCc2ccccc2)c2ccnc(Nc3ccn(C)n3)n2)c1`
Result: < 100 nM
